From: patent US7910622B2

Molecular target: LuxR (Aliivibrio fischeri, UniProt P35327)
Construct: a Δ-luxI derivative of V. fischeri ES114, in which the native lux operon behaves as the bioluminescent reporter; endogenous in cells; host or cells: V. fischeri ES114 (Δ-luxI)
Sequence (P35327 whole entry): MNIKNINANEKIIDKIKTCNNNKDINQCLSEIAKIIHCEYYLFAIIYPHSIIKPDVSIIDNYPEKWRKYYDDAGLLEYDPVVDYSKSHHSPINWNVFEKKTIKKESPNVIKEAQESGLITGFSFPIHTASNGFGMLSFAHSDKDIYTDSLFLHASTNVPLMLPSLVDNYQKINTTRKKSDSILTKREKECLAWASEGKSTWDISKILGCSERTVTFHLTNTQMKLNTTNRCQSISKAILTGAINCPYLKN
Experiment: cell-based
Type: cell-based, Vibrio fischeri
Conditions: 5 μM synthetic ligand against 5 μM OHHL; V. fischeri ES114 (Δ-luxI); normalized to OHHL

{"compound": "O=C(CCCc1ccccc1)N[C@@H]1CCOC1=O [D-3]", "V. fischeri-LuxR Inhibition [%]": "ca. 20%"}
{"compound": "O=C(CCCc1ccccc1)N[C@@H]1CCOC1=O [A26]", "V. fischeri-LuxR Inhibition [%]": "41%"}
{"compound": "O=C(/C=C/c1ccccc1)N[C@H]1CCOC1=O", "V. fischeri-LuxR Inhibition [%]": "48%"}
{"compound": "O=C(CCCc1c[nH]c2ccccc12)N[C@@H]1CCOC1=O", "V. fischeri-LuxR Inhibition [%]": "29%"}
{"compound": "O=C(CCCc1c[nH]c2ccccc12)N[C@H]1CCOC1=O [A18, indole AHL, reference compound]", "V. fischeri-LuxR Inhibition [%]": "72%"}
{"compound": "O=C(Cc1ccc(Br)cc1)N[C@@H]1CCOC1=O", "V. fischeri-LuxR Inhibition [%]": "ca. 20%"}
{"compound": "CC(=O)c1ccc(OCC(=O)N[C@H]2CCOC2=O)cc1C", "V. fischeri-LuxR Inhibition [%]": "50%"}
